B1: OR4K15 (parent)
chain: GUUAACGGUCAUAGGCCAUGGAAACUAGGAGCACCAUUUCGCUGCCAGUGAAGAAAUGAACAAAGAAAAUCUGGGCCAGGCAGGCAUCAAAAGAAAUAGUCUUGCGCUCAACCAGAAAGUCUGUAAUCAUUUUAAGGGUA

- Variants of: B1
- experiment_description: self-cleavage, relative activity (ratio to wild type); higher = more cleavage; in vitro, sequencing; the parent is a self-cleaving ribozyme
Group membership follows self-cleavage per the scheme I (below 0.7), II (0.7 to below 1), III (1 or more)

- variant_key: "U9G A78G"
  assigned_class: "I"
- variant_key: "A11G A90G"
  assigned_class: "III"
- variant_key: "A4G G15C"
  assigned_class: "III"
- variant_key: "A95U"
  assigned_class: "III"
- variant_key: "A69G A92U"
  assigned_class: "III"
- variant_key: "C16U U102C"
  assigned_class: "III"
- variant_key: "G106U A129G"
  assigned_class: "I"
- variant_key: "A33U A54G"
  assigned_class: "II"
- variant_key: "A47U A82G"
  assigned_class: "I"
- variant_key: "G15C A91U"
  assigned_class: "II"
